// provenance: the EternaBench riboswitch data

- System: MS2 coat protein
- method: apparent Kd, MS2 coat protein; higher = weaker binding; RNA-MaP array; FMN 200 µM where present
- condition details: designed as: OFF switch for flavin mononucleotide; no ligand
Use 50 nM as the dividing line for apparent Kd, with the line itself on the criterion met side and lower values as criterion not met.

seq_text=AACAGCUCGUCAGGAUAUACAAUACUGCUUCGGCAGUAUGAUAAGAUAACAUGAGGAUCACCCAUGUAGAAGGGACGAGCUGAA assigned_class="criterion not met"
seq_text=UGGCUACAUGAGGAUCACCCAUGUCAGGAUAUGCCGUCGGCUUGCCUUCGUCGUUCGGGUAGAAGGGACUGCGG assigned_class="criterion not met"
seq_text=GGUCGUUGAGGAUAUACGAACAUGUCGCCAGAUGUCAUGGUACAUGAGGAUCACCCAUGUAGAAGGUGGUGGUC assigned_class="criterion met"
seq_text=UAUUAACAUGUAGGAUAUCUGCACGAUUAGUGCAGAGAAGGACAUGAGGAUCACCCAUGUAGAUCAUAAUAAUUUAAUUUAAUU assigned_class="criterion met"
seq_text=UAUUAGUGAGGAUAUGAGUCGUAGAACAAUAGUACUACGUCUCAGAAGGUACAUGAGGAUCACCCAUGUUUCUC assigned_class="criterion not met"
seq_text=UGCAGGCGAGGAUAUGCUCGGGUUGCUUGUCGAGAGGAUGCACAUGAGGAUCACCCAUGUAGAAGGUGUCUAUG assigned_class="criterion not met"
seq_text=GCUGCGCGAGGAUAUGCGGUUCGCGCGGUGGCCCGUGGCGGACAUGAGGAUCACCCAUGUAGAAGGCGUGCGGG assigned_class="criterion not met"
seq_text=UGAUCGAGAGAUCUUAGAUUCUGGUAGGAUAUACAAAAGUUGCGCUUUACAUGAGGAUCACCCAUGUAGAAGGACUAGAGUCUA assigned_class="criterion not met"
seq_text=GUGUUGUCAGGAUAUCUUACAUAACUAUCGUUGUUACCAUUGGAGAAGGGACAUGAGGAUCACCCAUGUUAUCG assigned_class="criterion not met"
seq_text=CCUGGCUUAGGAUAUACAGGAACCGAGAACCCGGAAGUGAAACAUGAGGAUCACCCAUGUAGAAGGAAGAAAGC assigned_class="criterion not met"
seq_text=GCCAGGAUGUAAGGAUAUGCUGAGGAAUACUCAGCAGAAGGUACAUGAGGAUCACCCAUGUAAUCCUAAUAAUAAUAACCUGGC assigned_class="criterion not met"
seq_text=UAUAUAUAGUAAGGAUAUAUAUUUAUUUUAUAAAUAGAAGGUACAGACAUGAGGAUCACCCAUGUUAUAAUAUGGACAUGUGGA assigned_class="criterion met"
seq_text=AGUAACAGAGGAUAUACUGUUUUAUGUAUUUAUUAUUUUAAACAUGAGGAUCACCCAUGUAGAAGGCUGAAUGA assigned_class="criterion not met"
seq_text=UGAUCUAUGUAGAAGGCCCAUAUCUAUAUUUAGGGAGGAUAUACAUGAGGAUCACCCAUGUAUAGAGCUGGUGGACUGGUCAGC assigned_class="criterion not met"
seq_text=GGAUAGGACAGAGGAUAUACGUGCUAGAGAUACUCGCAAAAUUUCCUCACAUGAGGAUCACCCAUGUAGAAGGCUGUCCUAUCG assigned_class="criterion met"
